# Measurement description: molar heat capacity at constant pressure
# Test conditions: 333.15 K; 101.33 kPa; Liquid; Large sample (1 g) DSC
Below: a set of entries, each annotated with reported molar heat capacity at constant pressure.
Numeric answer only, unit J/K/mol assumed.

Solved entries:
>>> print(df.to_string())
                                   molecule  reading_unit  quantitative_result
0  CC(C)[C@H](N)C(=O)[O-].CCCC[P+](CCCC)(CCCC)CCCC [tetrabutylphosphonium L-valinate]       J/K/mol                781.2
1  CCCC[N+](C)(CCCC)CCCC.N[C@@H](CO)C(=O)[O-] [N,N-dibutyl-N-methylbutanaminium L-serinate]       J/K/mol                  658
2  CCCC[P+](CCCC)(CCCC)CCCC.O=C([O-])[C@@H]1CCCN1 [tetrabutylphosphonium L-prolinate]       J/K/mol                894.8
3  CCCC[P+](CCCC)(CCCC)CCCC.NCCS(=O)(=O)[O-] [tetrabutylphosphonium 2-aminoethanesulfonate]       J/K/mol               1042.6
4  CCCC[P+](CCCC)(CCCC)CCCC.N[C@@H](CO)C(=O)[O-] [tetrabutylphosphonium L-serinate]       J/K/mol                787.4
5  CCCC[N+](C)(CCCC)CCCC.NCCS(=O)(=O)[O-] [N,N-dibutyl-N-methyl-1-butanaminium 2-aminoethanesulfonate]       J/K/mol                863.2

[ask] Tell me the measured molar heat capacity at constant pressure of CCCC[P+](CCCC)(CCCC)CCCC.C[C@@H](O)[C@H](N)C(=O)[O-] [tetrabutylphosphonium L-threoninate] , please.
[reply] 1033.4

[ask] Also CCCC[P+](CCCC)(CCCC)CCCC.N[C@@H](CS)C(=O)[O-] [tetrabutylphosphonium L-cysteinate] , if possible.
[reply] 977.1

[ask] And for CCCC[P+](CCCC)(CCCC)CCCC.NCCCC[C@H](N)C(=O)[O-] [tetrabutylphosphonium L-lysinate] ?
[reply] 1060.1

[ask] And then CCCC[N+](C)(CCCC)CCCC.C[C@@H](O)[C@H](N)C(=O)[O-] [N,N-dibutyl-N-methyl-1-butanaminium L-threoninate] , what is it?
[reply] 789.2

[ask] Proceed to CCCC[N+](C)(CCCC)CCCC.NCCCC[C@H](N)C(=O)[O-] [N,N-dibutyl-N-methyl-1-butanaminium L-lysinate]
[reply] 877.7
